tested on: MCF7 breast; experiment: NCI tumour cell line growth inhibition, 48 h
observable: TGI

Looking up `CCn1c(-c2ccc(OC(C)=O)cc2)c(C)c2cc(OC(C)=O)ccc21` , I see its TGI listed as 40.4 µM

* * *

tested on: U251 CNS
Response enum: active, inactive

smiles notation	answer label
C1C[OH+]CC[OH+]CC[OH+]CC[OH+]CC[OH+]1.[Cl-].[V]	inactive
CCn1c(SCc2ccc(C)cc2)nnc1-c1nn(-c2ccc(Cl)cc2Cl)c(-c2ccc(Cl)cc2)c1C	inactive
COc1cc(/C=C/c2cc(/C=C/c3ccc(O)c(OC)c3)n(C(=O)Nc3ccc(C)cc3C)n2)ccc1O	active
CN(C)CCN1C(=O)c2ccc3c4c(ccc(c24)C1=O)C(=O)N(CCN=C=S)C3=O	active

Shift focus to the following entry.
Asked: Answer briefly: the call reported for `COc1cccc(C#Cc2ccccc2C#CCCCCO)c1` in this assay.
Given back: inactive

* * *

system: UO-31 renal; assay: NCI tumour cell line growth inhibition, 48 h
observable: TGI (µM)
Output spec: scalar in µM, unitless text.

These solved cases illustrate the format of a correct answer.
molecule	system name	value units	TGI
C=C1C(=O)OC2/C=C(\COC(C)=O)CCC(OC(C)=O)C3=CC(OC3=O)C12 (stereo unspecified)	UO-31 renal	µM	35.5
CCn1c(SCc2ccc(C)cc2)nnc1-c1nn(-c2ccc(Cl)cc2Cl)c(-c2ccc(Cl)cc2)c1C	UO-31 renal	µM	10.8
COc1cc(NC(C)CCCN)c2nccc(C)c2c1 (stereo unspecified)	UO-31 renal	µM	53.8
Cn1c(COC(=O)Nc2ccccc2)c(COC(=O)Nc2ccccc2)c2ccc3cc(Cl)c(Cl)cc3c21	UO-31 renal	µM	26.5

Entry under test: `COc1cccc(C#Cc2ccccc2C#CCCCCO)c1` . Its TGI was 22.3

TGI in this record for CC(C)(Cl)C(Br)CCC(=CCCl)CBr (mixture of isomers) : 3.42

* * *

system: BT-549 breast; experiment: NCI tumour cell line growth inhibition, 48 h
observable: TGI (µM)
Numbers only here, please. The scale is µM.

compound	system name	quantitative readout
CCn1c(SCc2ccc(C)cc2)nnc1-c1nn(-c2ccc(Cl)cc2Cl)c(-c2ccc(Cl)cc2)c1C	BT-549 breast	5.75
COc1cccc(C#Cc2ccccc2C#CCCCCO)c1	BT-549 breast	20.2
COc1ccc(C(=O)COc2ccc(/C=C3\COc4ccc(OC)cc4C3=O)cc2)cc1	BT-549 breast	35.8

TGI in this record for `O=C1/C(=C/c2ccc(Cl)cc2)CSc2ccccc21` : 78.6

`Cn1c2ccccc2c(=NNc2cccc(C(=O)O)c2)c2ccccc21` yielded TGI of 62.8

The reported TGI of the compound COC1C=COC2(C)Oc3c(C)c(O)c4c(O)c(c(C5SCCS5)c(O)c4c3C2=O)NC(=O)C(C)=C/C=C\C(C)C2OC(C)(C)OC(C2C)C(C)C(OC(C)=O)C1C (stereo not given) was 9.26

* * *

TGI reference
system: MOLT-4 leukemia; test: NCI tumour cell line growth inhibition, 48 h

compound	observable	result
Cn1c(COC(=O)Nc2ccccc2)c(COC(=O)Nc2ccccc2)c2ccc3cc(Cl)c(Cl)cc3c21	TGI	> 75 µM

Just so you know, measured TGI for O=C1NC(=O)C(CC2CCCCCCCCCCC2=O)C(=O)N1 (stereo unspecified) came out at > 100 µM

The measured TGI associated with `CCOC(=O)c1ccc(C)c(N=NN(C)C)c1` reads > 100 µM

response.value for N#CC1CC2(C1)OCCS2 (stereo unspecified) (field: TGI) = > 100 µM

The reported TGI of the compound `Cc1ccc2[nH]c(O)c(N=Nc3ccc(S(N)(=O)=O)cc3)c2c1` was > 25 µM

Please fill in: TGI reported for `COc1ccc2c(cnc3c4cc(OC)c(OC)cc4ccc23)c1` = > 100 µM

So, `CCOC(=O)NC(=O)c1cn(CCCOC(=O)CCCCCCCCCCC(=O)OCCCn2cc(C(=O)NC(=O)OCC)c(=O)[nH]c2=O)c(=O)[nH]c1=O` ? Its TGI was > 100 µM

Record `O=C(N/N=C/c1cc(Br)cc(Br)c1[O-])c1ccccc1O.O=C(N/N=C/c1cc(Br)cc(Br)c1[O-])c1ccccc1O.[Cu+2]` . Reported TGI: 2.54 µM

Lab book: TGI of `O=C1CCC(O)=C1N=Nc1ccccc1` noted as > 100 µM

TGI recorded for this compound, `CC(C)C[C@H](NC(=O)/C=C/Cn1ccc2ccccc2c1=O)B(O)O` , is 12.5 µM

Data point: `C/C(CC(=O)NCCc1ccccc1)=N\NC(=O)C[n+]1ccccc1` ; TGI = > 100 µM

Documented TGI of NC(CCC(=O)NC(CSCC1C(=O)Nc2ccccc21)C(=O)NCC(=O)O)C(=O)O (stereo unspecified) : 12.8 µM

The recorded TGI for `O=C1O[C@H](c2ccc3c(c2)OCO3)[C@H]2CO[C@@H](c3ccc4c(c3)OCO4)[C@@H]12` is > 100 µM

Given item `CC(=O)[C@@]1(O)CC[C@H]2[C@@H]3C[C@H](C)C4=CC(=O)C=C[C@]4(C)[C@@]3(F)[C@@H](O)C[C@@]21C` , the value recorded as its TGI is > 100 µM

The compound listed as O=C(Nc1c(Cl)cc([N+](=O)[O-])cc1Cl)C(=O)C(C1OC(=O)c2ccccc21)[N+](=O)[O-] (stereo unspecified) shows TGI equal to > 100 µM
